Kindly state Binding (OD 450 nm) for each of the entries shown.
Biological target: eCry3.1Ab hybrid insecticidal protein
Assay: direct ELISA: eCry3.1Ab coated at 1 ug/ml, RGS-His HRP detection
Report the value in OD 450 nm with no unit label.

Exercise: State its Binding (OD 450 nm) for this binder: synNAPS13 variant S33A (designed binder) RGSHHHHHHGSMVKVKFKRWGEEKEVDTSKILHVLRVGKYVRFAYDDNGKLGAGYVTEKDAPKELLDMLARAEREKK
Key: 4.1

Exercise: State its Binding (OD 450 nm) for this binder: synNAPS13 variant R8A (designed binder) RGSHHHHHHGSMVKVKFKAWGEEKEVDTSKILHVLRVGKYVRFSYDDNGKLGAGYVTEKDAPKELLDMLARAEREKK
Key: 2.4

Exercise: State its Binding (OD 450 nm) for this binder: synNAPS13 variant Y29A (designed binder) RGSHHHHHHGSMVKVKFKRWGEEKEVDTSKILHVLRVGKAVRFSYDDNGKLGAGYVTEKDAPKELLDMLARAEREKK
Key: 2.6

Exercise: State its Binding (OD 450 nm) for this binder: synNAPS13 variant L21A (designed binder) RGSHHHHHHGSMVKVKFKRWGEEKEVDTSKIAHVLRVGKYVRFSYDDNGKLGAGYVTEKDAPKELLDMLARAEREKK
Key: 1.8

Exercise: State its Binding (OD 450 nm) for this binder: synNAPS13 variant K7A (designed binder) RGSHHHHHHGSMVKVKFARWGEEKEVDTSKILHVLRVGKYVRFSYDDNGKLGAGYVTEKDAPKELLDMLARAEREKK
Key: 3

Numbers sourced from patent US20210181204A1.
